Test: logP by HPLC on reversed-phase column (C 18), EEC Directive 79/831 Annex V.A8
Assay type: physicochemical
Details: HPLC, 0.1% aqueous formic acid and acetonitrile, 40° C.; pH 2.3
Measured Property: logPa

# Record Smiles, logPa
rows = [
    ("CCN(C)C=Nc1cc(C)c(Oc2ccnc(Oc3ccc(F)c(F)c3)n2)cc1C", 1.93),
    ("Cc1cc(Oc2ncc(Cl)cn2)c(C)cc1N=CN(C)C(C)C", 1.41),
    ("CCOc1nccc(Oc2cc(C)c(N=CN(C)CC)cc2C)n1", 1.47),
    ("Cc1cc(Oc2ccnc(N3CCOCC3)n2)c(C)cc1N=CN(C)C(C)C", 1.46),
    ("CCCN(C)C=Nc1cc(C)c(Oc2ccnc(Oc3cccc(Cl)c3C)n2)cc1C", 2.21),
]

====

Assay: logP by HPLC on reversed-phase column (C 18), EEC Directive 79/831 Annex V.A8
Assay type: physicochemical
Conditions: HPLC, 0.1% aqueous formic acid and acetonitrile, 40° C.; pH 2.3
Measured Property: logPa

# Compound, Value Measured
records = [
    ("CCN(C)C=Nc1cc(C)c(Oc2ccnc(N(C)C)n2)cc1C", 0.66),
    ("CCCN(C)C=Nc1cc(C)c(Oc2ccnc(Oc3ccccc3)n2)cc1C", 1.87),
    ("CCN(C)C=Nc1cc(C)c(Oc2cc(OC)ncn2)cc1C", 1.32),
    ("CCN(C)C=Nc1cc(C)c(Oc2ccnc(Oc3ccccc3)n2)cc1C [Compound 35]", 1.68),
    ("Cc1cc(Oc2ccnc(Oc3ccc(Cl)cc3)n2)c(C)cc1N=CN1CCCCC1", 2.18),
    ("Cc1cc(Oc2ccnc(Oc3ccccc3)n2)c(C)cc1N=CN(C)C", 1.65),
    ("CCCN(C)C=Nc1cc(C)c(Oc2cc(Cl)ncn2)cc1C", 1.56),
]

====

Experiment: logP by HPLC on reversed-phase column (C 18), EEC Directive 79/831 Annex V.A8
Type: physicochemical
Settings: HPLC, 0.1% aqueous formic acid and acetonitrile, 40° C.; pH 2.3
Measured Property: logPa

# Compound, Measured Property, Value Measured
rows = [
    ("Cc1cc(Oc2nc(Cl)ncc2C)c(C)cc1N=CN(C)C(C)C [Compound 46]", "logPa", 1.62),
    ("CCCN(C)C=Nc1cc(C)c(Oc2cc(N(C)CCC)ncn2)cc1C [Compound 51]", "logPa", 1.79),
    ("CCN(C)C=Nc1cc(C)c(Oc2nc(Cl)ncc2Cl)cc1C [Compound 64]", "logPa", 1.67),
    ("COc1ccc(Oc2nccc(Oc3cc(C)c(N=CN4CCCCC4)cc3C)n2)cc1OC [Compound 74]", "logPa", 1.80),
    ("CCN(C)C=Nc1cc(C)c(Oc2ncnc(Oc3cccc(Cl)c3C)c2C)cc1C [Compound 8]", "logPa", 2.6),
    ("CCCN(C)C=Nc1cc(C)c(Oc2ccnc(OCC)n2)cc1C [Compound 50]", "logPa", 1.55),
    ("CCN(C)C=Nc1cc(C)c(Oc2ccnc(Oc3ccc(C(C)(C)C)cc3)n2)cc1C [Compound 77]", "logPa", 2.65),
    ("CCN(C)C=Nc1cc(C)c(Oc2cc(C)nc(Oc3ccccc3)n2)cc1C [Compound 73]", "logPa", 1.99),
    ("CCN(C)C=Nc1cc(C)c(Oc2ccnc(Oc3cccc(Cl)c3)n2)cc1C [Compound 65]", "logPa", 2.04),
]

====

Assay: logP by HPLC on reversed-phase column (C 18), EEC Directive 79/831 Annex V.A8
Format: physicochemical
Settings: HPLC, 0.1% aqueous formic acid and acetonitrile, 40° C.; pH 2.3
Measured Property: logPa

# Compound, logPa
rows = [
    ("COc1cc(Oc2cc(C)c(N=CN(C)C(C)C)cc2C)ncn1", 1.49),
    ("CCN(C)C=Nc1cc(C)c(Oc2ccnc(N(C)c3ccccc3)n2)cc1C", 1.61),
    ("Cc1cc(Oc2cc(C)c(N=CN3CCCCC3)cc2C)nc(Oc2ccccc2)n1", 2.09),
    ("CCc1ncnc(Oc2cc(C)c(N=CN(C)CC)cc2C)c1Cl", 1.91),
    ("CCN(C)c1nc(Oc2cc(C)c(N=CN3CCCCC3)cc2C)ncc1Cl", 1.93),
    ("CCOc1nccc(Oc2cc(C)c(N=CN(C)C(C)C)cc2C)n1", 1.62),
    ("CCN(C)C=Nc1cc(C)c(Oc2nccc(Oc3cccc(Cl)c3)n2)cc1C", 2.13),
    ("CCCN(C)C=Nc1cc(C)c(Oc2cc(OC)ncn2)cc1C", 1.47),
    ("CCN(C)C=Nc1cc(C)c(Oc2nccc(Oc3ccccc3)n2)cc1C", 1.82),
    ("CCCN(C)C=Nc1cc(C)c(Oc2ccnc(N3CCCCC3)n2)cc1C", 1.58),
    ("CCCN(C)C=Nc1cc(C)c(Oc2ccnc(N3CCOCC3)n2)cc1C", 3.13),
    ("CCCN(C)C=Nc1cc(C)c(Oc2ccnc(Nc3cccc(Cl)c3)n2)cc1C", 2.06),
    ("CCCN(C)C=Nc1cc(C)c(Oc2ncc(Cl)cn2)cc1C", 1.48),
    ("CCCN(C)C=Nc1cc(C)c(Oc2cc(C)nc(Cl)n2)cc1C", 1.62),
    ("CCN(C)C=Nc1cc(C)c(Oc2ccnc(Oc3ccccc3)n2)cc1C [Compound 72]", 1.96),
    ("CCN(C)C=Nc1cc(C)c(Oc2ccnc(Oc3cccc(Cl)c3C)n2)cc1C", 2.08),
    ("CCc1ncnc(Oc2cc(C)c(N=CN3CCCC3)cc2C)c1Cl", 1.87),
    ("CCN(C)c1cc(Oc2cc(C)c(N=CN(C)C(C)C)cc2C)ncn1", 1.56),
    ("Cc1cc(Oc2ccnc(Oc3ccccc3)n2)c(C)cc1N=CN1CCCCC1", 2.02),
    ("CCCN(C)c1cc(Oc2cc(C)c(N=CN(C)CC)cc2C)ncn1", 1.74),
    ("Cc1cc(Oc2cc(Cl)ncn2)c(C)cc1N=CN(C)C(C)C", 1.54),
    ("CCN(C)C=Nc1cc(C)c(Oc2ccnc(Oc3cccc(C)c3)n2)cc1C", 2.02),
]

====

Experiment: logP by HPLC on reversed-phase column (C 18), EEC Directive 79/831 Annex V.A8
Assay type: physicochemical
Conditions: HPLC, 0.1% aqueous formic acid and acetonitrile, 40° C.; pH 2.3
Measured Property: logPa

# Record Smiles, logPa
measured = [
    ("CCCN(C)C=Nc1cc(C)c(Oc2nc(Cl)ncc2C)cc1C", 1.68),
    ("CCN(C)C=Nc1cc(C)c(Oc2cc(Cl)ncn2)cc1C", 1.4),
    ("CCN(C)C=Nc1cc(C)c(Oc2ccnc(N3CCCCC3)n2)cc1C", 1.4),
    ("CCN(C)C=Nc1cc(C)c(Oc2ccnc(Cl)n2)cc1C", 1.3),
]

====

Assay: logP by HPLC on reversed-phase column (C 18), EEC Directive 79/831 Annex V.A8
Assay type: physicochemical
Details: reversed-phase C18 HPLC column; pH 2.3; value in preparation example text; read-out: log P (pH 2.3)
Measured Property: chromatographic logP

# Record Smiles, chromatographic logP
rows = [
    ("CCN(C)C=Nc1cc(C)c(Oc2ncc(Cl)c(N(C)CC)n2)cc1C", 1.82),
    ("Cc1cc(Oc2cc(C)c(N)cc2C)nc(Cl)n1", 1.62),
    ("CCN(C)c1nc(Oc2cc(C)c(N)cc2C)ncc1Cl", 1.88),
    ("CCN(C)C=Nc1cc(C)c(Oc2ccnc(Oc3cccc(Cl)c3C)n2)cc1C", 2.08),
]
